Biological target: human Cav2.2 (Homo sapiens)
Test: Assessment of calcium channel activity using FLIPR (Ca2+ influx in IMR32 cells)
Conditions: IMR32 cells endogenously expressing human Cav2.2; 60 minute pre-incubation; 2 μM nifedipine; depolarized with 80 mM KCl, 5 mM CaCl2
The following molecules are listed with their measured IC50 values.
MEASUREMENT KIND: IC50 (nM)

[[record]]
molecule = "COc1ccc(CCN(C)CCN2CCCC(c3cccc(OC)c3)(C(C)C)C2=O)cc1 (centres unmarked)"
reported_measurement = 1130

[[record]]
molecule = "O=C(CN1CCC(c2ccccc2)(c2ccccc2)C1=O)N1CCC(NCC(c2ccccc2)c2ccccc2)CC1"
reported_measurement = 1540

[[record]]
molecule = "O=C(CN1CCC(c2ccccc2)(c2ccccc2)C1=O)NCc1ccc(C(F)(F)F)cc1"
reported_measurement = 1490

[[record]]
molecule = "COc1ccc(C2(c3ccc(OC)cc3)CCCN(CCCN(C)CCc3cc(OC)cc(OC)c3)C2=O)cc1"
reported_measurement = 2680

[[record]]
molecule = "O=C1N(Cc2nc(-c3ccc(C(F)(F)F)nc3)no2)CCCC1(c1ccccc1)c1ccccc1"
reported_measurement = 3370


* * *

Target: human Cav2.2 (Homo sapiens, UniProt Q00975)
Sequence (Q00975 whole entry): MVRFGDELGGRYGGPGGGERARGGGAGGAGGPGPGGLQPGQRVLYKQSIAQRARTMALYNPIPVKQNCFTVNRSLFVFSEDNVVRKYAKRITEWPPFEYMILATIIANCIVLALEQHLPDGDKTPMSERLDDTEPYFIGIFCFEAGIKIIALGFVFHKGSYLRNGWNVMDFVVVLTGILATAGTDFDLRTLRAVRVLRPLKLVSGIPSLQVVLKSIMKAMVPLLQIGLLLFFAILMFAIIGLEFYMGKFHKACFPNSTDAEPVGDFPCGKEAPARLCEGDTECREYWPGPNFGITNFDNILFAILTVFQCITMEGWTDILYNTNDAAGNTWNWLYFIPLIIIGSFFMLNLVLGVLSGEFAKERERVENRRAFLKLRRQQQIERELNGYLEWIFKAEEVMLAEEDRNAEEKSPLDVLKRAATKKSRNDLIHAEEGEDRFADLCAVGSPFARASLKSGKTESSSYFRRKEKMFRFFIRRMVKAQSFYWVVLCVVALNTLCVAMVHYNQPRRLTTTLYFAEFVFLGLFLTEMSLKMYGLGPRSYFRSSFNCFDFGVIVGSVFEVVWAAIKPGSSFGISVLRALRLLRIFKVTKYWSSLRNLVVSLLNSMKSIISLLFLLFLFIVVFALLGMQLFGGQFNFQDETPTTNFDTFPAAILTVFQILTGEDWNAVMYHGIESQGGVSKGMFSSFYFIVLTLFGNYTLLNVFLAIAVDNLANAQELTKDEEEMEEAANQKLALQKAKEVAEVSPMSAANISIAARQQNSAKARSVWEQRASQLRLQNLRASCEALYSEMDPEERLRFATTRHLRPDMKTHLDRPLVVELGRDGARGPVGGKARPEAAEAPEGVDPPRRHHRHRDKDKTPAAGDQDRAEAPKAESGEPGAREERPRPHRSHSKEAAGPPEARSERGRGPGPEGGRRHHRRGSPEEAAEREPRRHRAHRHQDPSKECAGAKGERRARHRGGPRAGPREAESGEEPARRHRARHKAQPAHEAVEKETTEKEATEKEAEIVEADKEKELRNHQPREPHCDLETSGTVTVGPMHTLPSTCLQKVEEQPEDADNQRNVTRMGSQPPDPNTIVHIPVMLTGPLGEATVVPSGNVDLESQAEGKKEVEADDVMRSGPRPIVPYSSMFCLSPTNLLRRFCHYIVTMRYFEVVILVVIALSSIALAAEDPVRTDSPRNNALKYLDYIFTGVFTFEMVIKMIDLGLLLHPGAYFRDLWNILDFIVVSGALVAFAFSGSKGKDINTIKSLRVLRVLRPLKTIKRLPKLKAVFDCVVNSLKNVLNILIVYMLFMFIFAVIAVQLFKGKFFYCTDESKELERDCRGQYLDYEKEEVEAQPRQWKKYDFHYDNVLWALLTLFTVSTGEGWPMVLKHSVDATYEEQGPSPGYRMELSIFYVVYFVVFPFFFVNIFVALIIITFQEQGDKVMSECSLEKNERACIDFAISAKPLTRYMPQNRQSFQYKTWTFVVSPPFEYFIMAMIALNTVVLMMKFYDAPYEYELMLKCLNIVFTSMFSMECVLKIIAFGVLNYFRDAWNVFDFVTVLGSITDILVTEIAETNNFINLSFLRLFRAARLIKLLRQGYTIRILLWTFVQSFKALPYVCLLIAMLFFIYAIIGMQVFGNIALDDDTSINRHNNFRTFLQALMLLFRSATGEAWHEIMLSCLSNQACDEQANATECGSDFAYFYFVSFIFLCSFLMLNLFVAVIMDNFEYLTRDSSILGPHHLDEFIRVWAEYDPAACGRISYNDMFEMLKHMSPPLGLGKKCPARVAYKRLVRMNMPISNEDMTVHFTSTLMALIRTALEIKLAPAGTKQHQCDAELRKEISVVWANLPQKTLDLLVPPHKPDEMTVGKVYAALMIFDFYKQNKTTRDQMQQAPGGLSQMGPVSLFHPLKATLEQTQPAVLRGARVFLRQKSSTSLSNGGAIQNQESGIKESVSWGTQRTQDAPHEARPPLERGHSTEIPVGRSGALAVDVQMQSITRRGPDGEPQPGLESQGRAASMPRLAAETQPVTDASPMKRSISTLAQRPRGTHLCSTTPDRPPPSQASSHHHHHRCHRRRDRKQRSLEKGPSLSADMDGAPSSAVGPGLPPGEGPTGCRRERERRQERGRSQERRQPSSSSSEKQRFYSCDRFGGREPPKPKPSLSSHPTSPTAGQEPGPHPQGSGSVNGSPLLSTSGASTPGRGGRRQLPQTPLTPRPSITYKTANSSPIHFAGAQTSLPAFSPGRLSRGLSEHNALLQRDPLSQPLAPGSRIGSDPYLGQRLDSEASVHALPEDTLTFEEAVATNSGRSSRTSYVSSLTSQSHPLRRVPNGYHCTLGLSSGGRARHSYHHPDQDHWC
Sequence (P54289 25-951 partner limits assumed): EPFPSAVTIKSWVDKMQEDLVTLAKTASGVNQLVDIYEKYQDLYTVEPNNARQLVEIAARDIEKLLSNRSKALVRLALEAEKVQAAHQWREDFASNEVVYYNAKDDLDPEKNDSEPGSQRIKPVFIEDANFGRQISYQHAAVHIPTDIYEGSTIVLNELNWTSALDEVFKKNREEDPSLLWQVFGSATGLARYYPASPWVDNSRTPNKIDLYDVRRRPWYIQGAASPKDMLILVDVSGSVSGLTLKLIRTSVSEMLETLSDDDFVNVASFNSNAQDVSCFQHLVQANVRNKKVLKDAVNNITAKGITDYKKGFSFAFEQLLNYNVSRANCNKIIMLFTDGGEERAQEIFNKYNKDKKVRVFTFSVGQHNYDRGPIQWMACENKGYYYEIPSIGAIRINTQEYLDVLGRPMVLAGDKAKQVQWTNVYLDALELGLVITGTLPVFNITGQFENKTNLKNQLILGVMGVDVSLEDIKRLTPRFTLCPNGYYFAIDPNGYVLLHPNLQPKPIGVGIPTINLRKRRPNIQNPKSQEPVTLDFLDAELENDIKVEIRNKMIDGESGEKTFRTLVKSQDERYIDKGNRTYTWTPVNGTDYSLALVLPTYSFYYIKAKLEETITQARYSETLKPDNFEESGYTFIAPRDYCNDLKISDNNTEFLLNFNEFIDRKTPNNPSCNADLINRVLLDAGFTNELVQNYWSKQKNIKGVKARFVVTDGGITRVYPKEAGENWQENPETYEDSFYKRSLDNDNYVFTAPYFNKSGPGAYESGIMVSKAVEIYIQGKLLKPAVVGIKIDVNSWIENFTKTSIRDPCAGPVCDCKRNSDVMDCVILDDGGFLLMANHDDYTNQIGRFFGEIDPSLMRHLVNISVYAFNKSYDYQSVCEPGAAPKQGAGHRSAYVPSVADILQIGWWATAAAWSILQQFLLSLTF
Sequence (P54289 952-1103 partner limits assumed): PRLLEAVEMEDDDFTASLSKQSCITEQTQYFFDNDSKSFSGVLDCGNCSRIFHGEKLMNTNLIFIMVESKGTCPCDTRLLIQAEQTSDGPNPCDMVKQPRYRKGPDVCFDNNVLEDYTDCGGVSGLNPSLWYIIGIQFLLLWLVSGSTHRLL
Sequence (P54284 whole entry partner): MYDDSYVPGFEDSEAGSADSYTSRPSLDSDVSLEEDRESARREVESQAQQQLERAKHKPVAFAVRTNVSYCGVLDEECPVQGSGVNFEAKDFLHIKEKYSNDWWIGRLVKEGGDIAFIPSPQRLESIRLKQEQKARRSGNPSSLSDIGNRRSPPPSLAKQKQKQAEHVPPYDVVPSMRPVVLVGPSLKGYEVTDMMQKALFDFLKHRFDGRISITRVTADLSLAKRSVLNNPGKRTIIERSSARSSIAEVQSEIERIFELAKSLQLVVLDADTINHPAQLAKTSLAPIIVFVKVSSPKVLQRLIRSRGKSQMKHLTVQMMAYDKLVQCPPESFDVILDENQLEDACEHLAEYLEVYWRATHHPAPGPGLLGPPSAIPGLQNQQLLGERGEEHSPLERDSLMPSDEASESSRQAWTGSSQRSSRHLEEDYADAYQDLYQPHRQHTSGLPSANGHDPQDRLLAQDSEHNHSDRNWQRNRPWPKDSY
Test: Assessment of calcium channel activity using FLIPR (Ca2+ influx in IMR32 cells)
Settings: IMR32 cells endogenously expressing human Cav2.2; 60 minute pre-incubation; 2 μM nifedipine; depolarized with 80 mM KCl, 5 mM CaCl2
Strictly below 2000 nM in IC50: Satisfied. Otherwise: Not satisfied.

[[record]]
molecule = "O=C(CN1CCC(c2ccc(F)cc2)(c2ccc(F)cc2)C1=O)N1C[C@@H]2CCCN(Cc3cccc(C(F)(F)F)c3)[C@@H]2C1 [Example 210]"
target_entity = "human Cav2.2 (Homo sapiens, UniProt Q00975)"
class_label = "Satisfied"

[[record]]
molecule = "O=C(CN1CCC(c2ccccc2)(c2ccccc2)C1=O)N1CCN(c2ccc(F)cc2)CC1 [Example 54]"
target_entity = "human Cav2.2 (Homo sapiens, UniProt Q00975)"
class_label = "Not satisfied"

[[record]]
molecule = "O=C1N(Cc2nc(-c3cccnc3)no2)CCC1(c1ccccc1)c1ccccc1 [Example 221]"
target_entity = "human Cav2.2 (Homo sapiens, UniProt Q00975)"
class_label = "Not satisfied"

[[record]]
molecule = "Cc1nc(-c2cccc(C(F)(F)F)c2)sc1CN1CCC(c2ccccc2)(c2ccccc2)C1=O [Example 157]"
target_entity = "human Cav2.2 (Homo sapiens, UniProt Q00975)"
class_label = "Not satisfied"

[[record]]
molecule = "CN(CCCN1CCCC(c2ccc(F)cc2)(c2ccc(F)cc2)C1=O)CCc1ccccc1 [Example 123]"
target_entity = "human Cav2.2 (Homo sapiens, UniProt Q00975)"
class_label = "Satisfied"

[[record]]
molecule = "O=C(CN1CCC(c2ccccc2)(c2ccccc2)C1=O)N[C@@H]1CC[C@H]2CN(Cc3cccc(C(F)(F)F)c3)C[C@H]21 (relative stereo) [Example 57]"
target_entity = "human Cav2.2 (Homo sapiens, UniProt Q00975)"
class_label = "Satisfied"

[[record]]
molecule = "O=C1N(Cc2nc(-c3ccc(C(F)(F)F)cc3)no2)CCC1(c1ccccc1)c1ccccc1 [Example 62]"
target_entity = "human Cav2.2 (Homo sapiens, UniProt Q00975)"
class_label = "Not satisfied"

[[record]]
molecule = "CN(CCc1ccccc1)CCN1CCCC(c2ccc(F)cc2)(c2ccc(F)cc2)C1=O [Example 122]"
target_entity = "human Cav2.2 (Homo sapiens, UniProt Q00975)"
class_label = "Not satisfied"

[[record]]
molecule = "CN(CCN1CCC(c2ccc(F)cc2)(c2ccc(F)cc2)C1=O)CC(O)COc1cccc2ncccc12 (centres unmarked) [Example 108]"
target_entity = "human Cav2.2 (Homo sapiens, UniProt Q00975)"
class_label = "Satisfied"

[[record]]
molecule = "O=C(CN1CCC(c2ccccc2)(c2ccccc2)C1=O)N1CCN(c2ccc(Cl)cn2)CC1 [Example 53]"
target_entity = "human Cav2.2 (Homo sapiens, UniProt Q00975)"
class_label = "Not satisfied"

[[record]]
molecule = "O=C1N(S(=O)(=O)c2ccccc2C(F)(F)F)CCC1(c1ccccc1)c1ccccc1 [Example 148]"
target_entity = "human Cav2.2 (Homo sapiens, UniProt Q00975)"
class_label = "Not satisfied"

[[record]]
molecule = "COc1ccc(C2(c3ccc(OC)cc3)CCN(CCNC(=O)c3ccccc3)C2=O)cc1 [Example 112]"
target_entity = "human Cav2.2 (Homo sapiens, UniProt Q00975)"
class_label = "Not satisfied"

[[record]]
molecule = "O=C(CN1CCC(c2ccccc2)(c2ccccc2)C1=O)N1CCC(c2ccc(F)cc2)(c2ccc(F)cc2)C1 [Example 203]"
target_entity = "human Cav2.2 (Homo sapiens, UniProt Q00975)"
class_label = "Not satisfied"

[[record]]
molecule = "CN(CCCN1CCC(c2ccc(F)cc2)(c2ccc(F)cc2)C1=O)C1Cc2ccccc2C1 [Example 114]"
target_entity = "human Cav2.2 (Homo sapiens, UniProt Q00975)"
class_label = "Satisfied"

[[record]]
molecule = "O=C(CN1CCC(c2ccc(F)cc2)(c2ccc(F)cc2)C1=O)N1CCC(C(O)(c2ccc(F)cc2)c2ccc(F)cc2)CC1 [Example 271]"
target_entity = "human Cav2.2 (Homo sapiens, UniProt Q00975)"
class_label = "Not satisfied"

[[record]]
molecule = "O=C(CN1CCC(c2ccc(F)cc2)(c2ccc(F)cc2)C1=O)N1CCN(Cc2cccc(C(F)(F)F)c2)CC1 [Example 60]"
target_entity = "human Cav2.2 (Homo sapiens, UniProt Q00975)"
class_label = "Satisfied"

[[record]]
molecule = "O=C(CN1CCC(c2ccc(F)cc2)C1=O)N1Cc2ccc(C(F)(F)F)cc2C1 (single isomer, unassigned; (-)) [Example 265]"
target_entity = "human Cav2.2 (Homo sapiens, UniProt Q00975)"
class_label = "Not satisfied"


* * *

Target: human Cav2.2 (Homo sapiens)
Assay: Assessment of calcium channel activity using FLIPR (Ca2+ influx in IMR32 cells)
Format: cell-based
Conditions: IMR32 cells endogenously expressing human Cav2.2; 60 minute pre-incubation; 2 μM nifedipine; depolarized with 80 mM KCl, 5 mM CaCl2
pIC50: −log10 of the molar value.
MEASUREMENT KIND: pIC50

[[record]]
smiles_str = "O=C1N(Cc2nc(-c3ccc(C(F)(F)F)cc3)no2)CCCC1(c1ccc(F)cc1)c1ccc(F)cc1"
reported_measurement = 5.16

[[record]]
smiles_str = "O=C(CN1CCC(c2ccccc2)(c2ccccc2)C1=O)N1CCN(Cc2ccc(F)cc2)CC1"
reported_measurement = 5.65

[[record]]
smiles_str = "O=C(CN1CCC(c2ccccc2)(c2ccccc2)C1=O)N1CCN(Cc2ccc(Cl)cc2Cl)CC1"
reported_measurement = 6.28

[[record]]
smiles_str = "O=C(CN1CCC(c2ccccc2)(c2ccccc2)C1=O)N1Cc2ccc(F)cc2C1"
reported_measurement = 5.31


Data origin: patent US8044069B2
